MEASURED TARGET: human synthetic MSK1 (14-438-K, Millipore) (Homo sapiens, UniProt O75582)
Construct: purchased Millipore 14-438-K
Sequence (O75582 whole entry): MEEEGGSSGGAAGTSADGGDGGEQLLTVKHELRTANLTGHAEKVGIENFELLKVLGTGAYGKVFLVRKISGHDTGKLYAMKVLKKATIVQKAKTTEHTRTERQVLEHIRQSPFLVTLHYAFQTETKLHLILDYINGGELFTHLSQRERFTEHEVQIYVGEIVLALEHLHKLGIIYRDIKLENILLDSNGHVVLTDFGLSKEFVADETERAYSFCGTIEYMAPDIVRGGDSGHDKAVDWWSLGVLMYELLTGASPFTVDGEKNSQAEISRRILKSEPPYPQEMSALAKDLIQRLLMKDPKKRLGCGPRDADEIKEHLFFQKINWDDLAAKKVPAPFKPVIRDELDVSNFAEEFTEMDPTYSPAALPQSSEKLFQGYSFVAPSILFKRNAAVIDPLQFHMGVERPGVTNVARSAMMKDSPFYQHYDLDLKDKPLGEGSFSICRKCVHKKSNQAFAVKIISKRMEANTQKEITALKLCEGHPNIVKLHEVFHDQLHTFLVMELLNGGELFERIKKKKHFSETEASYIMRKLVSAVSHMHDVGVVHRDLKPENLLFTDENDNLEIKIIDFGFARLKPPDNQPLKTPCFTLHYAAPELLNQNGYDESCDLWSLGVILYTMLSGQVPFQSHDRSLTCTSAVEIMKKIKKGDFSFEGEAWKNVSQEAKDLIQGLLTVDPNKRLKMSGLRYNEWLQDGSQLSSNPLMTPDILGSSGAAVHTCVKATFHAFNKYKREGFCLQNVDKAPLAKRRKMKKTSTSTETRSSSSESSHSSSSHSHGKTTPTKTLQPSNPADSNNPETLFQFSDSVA
PROCEDURE TEXT: MSK1 enzymatic inhibition assay (Kinase-Glo luminescence)
Assay type: biochemical
SETTINGS: compound at 1 µM; ± Standard Deviation (n = 4); read-out: MSK1 % Inhibition 1 µM
RESULT TYPE: inhibition at 1 µM (%)

1 = N=C(N)Nc1cccc(-c2ccccc2Cl)n1
2 = Nc1nc2c(-c3ccccc3Cl)cccc2n1CCO [Compound 74b]
3 = N=C(N)Nc1cccc(-c2cccc(C(F)(F)F)c2Cl)n1
4 = Nc1nc2c(-c3ccccc3)cccc2[nH]1 [Compound 49a]
5 = Br.Nc1nc2c(-c3ccc(Cl)cc3)cccc2[nH]1 [Compound 49b]
Asked: # desc sort on inhibition at 1 µM across 5 molecules Answer by naming the labels in the order asked.
Given back: 1, 3, 4, 2, 5
(1: 62%, 3: 10%, 4: 5%, 2: -2%, 5: -3%)

---

MEASURED TARGET: human synthetic MSK1 (14-438-K, Millipore) (Homo sapiens, UniProt O75582)
Construct: purchased Millipore 14-438-K
PROCEDURE TEXT: MSK1 enzymatic inhibition assay (Kinase-Glo luminescence)
Type: biochemical
SETTINGS: compound at 10 µM; ± Standard Deviation (n = 4); read-out: MSK1 % Inhibition 10 µM
Description: All results are summarized in Table 1, Table 2, Table 3, Table 4 and Table 5 and on Figure 4. […] An orthogonal luminescence-based assay Kinase-Glo® (Promega, Madison, WI, USA) was used to validate the hits, quantifying the amount of the remaining ATP in the solution following the kinase reaction. Enzymatic reactions were performed up to 4h at room temperature in presence of 3 µM ATP. […] Luminescence was measured with EnVision Plate Reader (Perkin Elmer).
RESULT TYPE: inhibition at 10 µM (%)

Use the examples below as a reference point.
molecule="O=C1NCCc2[nH]c(-c3ccncc3)cc21 [PHA767491, reference compound]" observed_measurement=94
molecule="Br.Nc1nc2c(-c3ccc(Cl)cc3)cccc2[nH]1 [Compound 49b]" observed_measurement=49
molecule="Br.NC1=Nc2cccc(-c3ccc(Cl)cc3)c2CN1 [Compound 37b]" observed_measurement=0
molecule="N=C(N)Nc1cccc(-c2ccncc2)n1 [Compound 1r]" observed_measurement=18

P = Nc1nc2c(-c3ccccc3Cl)cccc2n1CCCCc1ccccc1 [Compound 74d]
Q = Nc1nc2c(-c3ccccc3Cl)cccc2n1CCCNC(=O)c1ccccc1 [Compound 74c]
Asked: Lowest inhibition at 10 µM? choose P or Q Return value: the label identifying the chosen record.
Given back: P
(P: 5%, Q: 37%)

1 = Nc1nc2c(-c3ccccc3Cl)cccc2n1CCO [Compound 74b]
2 = Nc1nc2cccc(-c3ccccc3Cl)c2n1CCc1ccccc1 [Compound 75]
3 = Nc1nc2cc(-c3ccccc3)ccc2[nH]1 [Compound 50]
4 = N=C(N)Nc1cccc(-c2cccc(Cl)c2Cl)n1.O=C(O)C(F)(F)F [Compound 1o]
Asked: Task for the reader: rank each entry by its inhibition at 10 µM, from the minimum upward. # output: labels, in the requested order
Given back: 2, 3, 1, 4

a = COc1cccc(-c2cccc(NC(=N)N)n2)c1 [Compound 1f]
b = c1ccc(NC2=Nc3cccc(-c4ccccc4)c3CN2)cc1 [Compound 60b]
Asked: Which of the two gives a bigger number for inhibition at 10 µM: a or b ? Record your answer as the label of the chosen record.
Given back: a

1 = NC(=S)Nc1cccc(-c2ccccc2)n1 [Compound 33, 1(6-phenylpyridin-2-yl)thiourea]
2 = N=C(N)Nc1cccc(-c2ccccc2C(F)(F)F)n1.O=C(O)C(F)(F)F [Compound 1m]
3 = Br.COc1cccc(-c2cccc3c2CNC(N)=N3)c1 [Compound 37e]
4 = Br.NC1=Nc2cccc(-c3cccc(Cl)c3)c2CN1 [Compound 37d]
Asked: List the 4 entries from lowest inhibition at 10 µM to highest inhibition at 10 µM value. Dear reader, please state the labels in the requested order.
Given back: 3, 1, 4, 2

P = N=C(N)Nc1cccc(-c2cccnc2)n1 [Compound 1s]
Q = N=C(N)Nc1cccc(N2CCCCC2)n1 [Compound 31, 2-guanidino-6-piperidinopyridine]
Asked: Between the two listed entries P and Q , which has its inhibition at 10 µM at the higher number? Give the label under which the chosen entry appears.
Given back: P

---

MEASURED TARGET: human synthetic MSK1 (14-438-K, Millipore) (Homo sapiens)
Construct: purchased Millipore 14-438-K
PROCEDURE TEXT: MSK1 enzymatic inhibition assay (Kinase-Glo luminescence)
Format: biochemical
SETTINGS: compound at 1 µM; ± Standard Deviation (n = 4); read-out: MSK1 % Inhibition 1 µM
RESULT TYPE: inhibition at 1 µM (%)

Worked cases, answers included:
compound="N=C(N)Nc1cccc(-c2ccc(Cl)cc2Cl)n1 [Compound 1p]" observed_measurement=2
compound="O=C1NCCc2[nH]c(-c3ccncc3)cc21 [PHA767491, reference compound]" observed_measurement=72
compound="O=S(=O)(NCCNC/C=C/c1ccc(Br)cc1)c1cccc2cnccc12 [Compound H89, H89, reference compound]" observed_measurement=80

1 = Br.NC1=Nc2cccc(-c3ccccc3Cl)c2CN1 [Compound 37f]
2 = COc1ccc(-c2cccc3c2CNC(N)=N3)cc1 [Compound 37c]
Asked: Could you please tell me which of these two has the higher inhibition at 1 µM: 1 or 2 ? // respond with label for picked entry
Given back: 1

A = Br.COc1ccc(-c2cccc3[nH]c(N)nc23)cc1 [Compound 49c]
B = O=S(=O)(c1cccc2cnccc12)N1CCCNCC1 [Fasudil, fasudil, reference compound]
C = N=C(N)Nc1ccc(-c2ccccc2)cn1 [Compound 12, 5-phenyl pyridinylguanidine]
D = CCCNC1=Nc2cccc(-c3ccccc3)c2CN1 [Compound 60a]
Asked: Order field: inhibition at 1 µM | Direction: descending (largest first) List each label, following the requested order.
Given back: B, D, A, C

a = c1ccc(NC2=Nc3cccc(-c4ccccc4)c3CN2)cc1 [Compound 60b]
b = O=c1[nH]c2cccc(-c3ccccc3Cl)c2[nH]1 [Compound 64]
Asked: # return whichever of a and b has the smaller inhibition at 1 µM State your choice using its label.
Given back: b
(b: -18%, a: -2%)

---

RESULT TYPE: melting point

Solved cases (4 shown):
compound="CCCNC1=Nc2cccc(-c3ccccc3)c2CN1 [Compound 60a]" result_type="melting point" observed_measurement="70 to 72 °C"
compound="N=C(N)Nc1cccc(-c2ccccc2C(F)(F)F)n1.O=C(O)C(F)(F)F [Compound 1m]" result_type="melting point" observed_measurement="157 to 158 °C"
compound="N=C(N)Nc1cccc(-c2ccc(C(F)(F)F)cc2)n1.O=C(O)C(F)(F)F [Compound 1c]" result_type="melting point" observed_measurement="248 to 249 °C"
compound="N=C(N)Nc1cccc(-c2cccc(Cl)c2Cl)n1.O=C(O)C(F)(F)F [Compound 1o]" result_type="melting point" observed_measurement="190 to 191 °C"

# ---- query compound ----
Asked: Could you tell me which melting point is on file for Br.Nc1nc2c(-c3ccc(Cl)cc3)cccc2[nH]1 [Compound 49b] ?
Given back: 254 to 256 °C

---

Structures can show the parent of a compound that is named as a salt.
RESULT TYPE: melting point

compound="Br.COc1ccccc1-c1cccc2[nH]c(N)nc12 [Compound 49g]" observed_measurement="61 to 66 °C"

Asked: Name the recorded melting point for Br.COc1cccc(-c2cccc3c2CNC(N)=N3)c1 [Compound 37e] .
Given back: 198 to 199 °C

Asked: # query: melting point of entry Br.Nc1nc2c(-c3cc(Cl)ccc3Cl)cccc2[nH]1 [Compound 49f]
Given back: 202 to 205 °C

Asked: Need melting point, item Br.COc1ccc(-c2cccc3[nH]c(N)nc23)cc1 [Compound 49c]
Given back: 218 to 220 °C

Asked: Tell me the measured melting point of N=C(N)Nc1cccc(Cc2ccccc2)n1 (as salt: trifluoroacetate) , please.
Given back: 161 to 162 °C

---

MEASURED TARGET: human synthetic MSK1 (14-438-K, Millipore) (Homo sapiens)
Construct: purchased Millipore 14-438-K
PROCEDURE TEXT: MSK1 enzymatic inhibition assay (Kinase-Glo luminescence)
Type: biochemical
SETTINGS: tested at 1 and 10 µM
RESULT TYPE: MSK1 inhibitory activity (in words)

compound=O=c1[nH]c2cccc(-c3ccccc3Cl)c2[nH]1 result_type="MSK1 inhibitory activity (in words)" observed_measurement=inactivity
compound="CCCNC1=Nc2cccc(-c3ccccc3)c2CN1 [Compound 60a]" result_type="MSK1 inhibitory activity (in words)" observed_measurement=inactivity
compound=N=C(N)Nc1cccc(CCc2ccccc2)n1 result_type="MSK1 inhibitory activity (in words)" observed_measurement=inactive
compound=N=C(N)Nc1ncccc1-c1ccccc1 result_type="MSK1 inhibitory activity (in words)" observed_measurement=inactive
compound=NC(=S)Nc1cccc(-c2ccccc2)n1 result_type="MSK1 inhibitory activity (in words)" observed_measurement=inactive
compound=N=C(N)Nc1cccc(-c2ccc(C(F)(F)F)cc2)n1.O=C(O)C(F)(F)F result_type="MSK1 inhibitory activity (in words)" observed_measurement=inactive

Asked: May I ask what MSK1 inhibitory activity (in words) has been recorded for `N=C(N)Nc1cc(-c2ccccc2)ccn1` ?
Given back: inactive

Asked: Any idea what MSK1 inhibitory activity (in words) was measured for `COc1ccc(-c2cccc(NC(=N)N)n2)cc1` ?
Given back: inactive

Asked: Can you look up the measured MSK1 inhibitory activity (in words) of `N=C(N)Nc1ccc(-c2ccccc2)cn1` for me?
Given back: inactive
